Entries annotated with measured pIC50
subject_of_test: BRD4 (Homo sapiens, UniProt O60885)
test_details: Time Resolved Fluorescence Resonance Energy Transfer (TR-FRET) binding assay, BRD4
run_parameters: one of the FRET assays described; read-out: FRET BRD4 IC50
pIC50: −log10 of the molar value.

Worked set:
QUERY: What does the record list as pIC50 for Cc1nnn(C)c1-c1cnc2c3ccc(C(C)(C)NC(=O)CN(C)C)cc3n(C(c3ccccc3)C3CCOCC3)c2c1 (single isomer, unassigned) [Example 167] ?
RESULT: > 8.30

QUERY: Dear colleague, I am looking for the recorded pIC50 of the following compound: `Cc1nnn(C)c1-c1cnc2c3c(NS(C)(=O)=O)ccc(S(C)(=O)=O)c3n([C@H](c3ccccc3)C3CCOCC3)c2c1`
RESULT: > 8.30

QUERY: Which pIC50 value is on record for [2H]C([2H])([2H])c1nnn(C)c1-c1cnc2c3c(OCC)cc(S(C)(=O)=O)cc3n(C(c3ccccc3)C3CCC(F)(F)CC3)c2c1 (stereo not drawn) [Example 209] ?
RESULT: > 8.30

QUERY: Item under review: `Cc1noc(C)c1-c1cnc2c3ccc(C(C)(C)O)cc3n([C@H](CCC(F)(F)F)c3ccccc3)c2c1` . Reported pIC50?
RESULT: > 7.60

QUERY: Need pIC50, item Cc1nnn(C)c1-c1cnc2c3ccc(C(C)(C)O)cc3n(C(c3ccc(F)cc3)C3CCC3)c2c1 (single isomer, unassigned)
RESULT: > 8.30

Further cases:
QUERY: Can you share its pIC50? I mean this compound: Cc1noc(C(C2CCOCC2)n2c3cc(C(C)(C)O)ccc3c3ncc(-c4c(C)nnn4C)cc32)n1 (single isomer, unassigned) [Example 299]
RESULT: > 8.30

###

Catalogue of molecules with associated pIC50
subject_of_test: BRD4 (Homo sapiens)
test_details: Time Resolved Fluorescence Resonance Energy Transfer (TR-FRET) binding assay, BRD4
run_parameters: one of the FRET assays described; read-out: FRET BRD4 IC50
pIC50: −log10 of the molar value.

Below: 5 molecules and their reported pIC50.
QUERY: Which pIC50 value belongs to [2H]C([2H])([2H])c1nnn(C)c1-c1cnc2c3c(F)cc(S(C)(=O)=O)cc3n(C(c3ncccc3F)C3CCC(F)(F)CC3)c2c1 (stereo not drawn) [Example 211] ?
RESULT: > 8.30

QUERY: Can you look up the measured pIC50 of Cc1nnn(C)c1-c1cnc2c3ccc(C(C)(C)O)cc3n(C(c3ccc(F)c(F)c3)C3CCOCC3)c2c1 (single isomer, unassigned) [Example 96] for me?
RESULT: > 7.60

QUERY: Any idea what its pIC50 is? The molecule is Cc1nnn(C)c1-c1cnc2c3c(NS(=O)(=O)C4CC4)ccc(S(C)(=O)=O)c3n([C@H](c3ccccc3)C3CCOCC3)c2c1 [Example 218]
RESULT: > 8.30

QUERY: For the molecule [2H]C([2H])([2H])c1nnn(C)c1-c1cnc2c3ccc(C(C)(C)O)c(F)c3n([C@H](c3ccccc3F)C3CCOCC3)c2c1 [Example 272] , what pIC50 is on record?
RESULT: > 8.30

QUERY: Query: pIC50; subject: Cc1noc(C)c1-c1cnc2c3ccc(C(O)CC#N)cc3n([C@H](c3ccccc3)C3CCOCC3)c2c1 (single isomer, unassigned) [Example 373]
RESULT: > 8.30

Next:
QUERY: Reported pIC50, molecule [2H]C([2H])([2H])c1nnn(C)c1-c1cnc2c3ccc(C(C)(C)O)cc3n(C(c3ccc(F)cn3)C3CCOCC3)c2c1 (single isomer, unassigned) [Example 317] : ____
RESULT: > 8.30

QUERY: For the molecule Cc1nnn(C)c1-c1cnc2c3cc(F)c(C(C)(C)O)cc3n(C(c3ccc(F)cc3)C3CCOCC3)c2c1 (single isomer, unassigned) [Example 79] , what pIC50 is on record?
RESULT: > 7.60

QUERY: Value lookup for pIC50; key = [2H]C([2H])([2H])c1onc(C)c1-c1cnc2c3ccc(C(C)(C)O)cc3n([C@H](c3ccccc3)C3CCOCC3)c2c1 [Example 192]
RESULT: > 8.30

QUERY: Need pIC50 of Cc1noc(C(C2CCOCC2)n2c3cc(C(C)(C)O)ccc3c3ncc(-c4c(C)nnn4C)cc32)n1 (single isomer, unassigned) [Example 300] , thanks.
RESULT: > 7.60

QUERY: For the molecule shown here, CCc1nnn(C)c1-c1cnc2c3ccc(C(C)(C)O)cc3n([C@H](c3ccccc3)C3CCOCC3)c2c1 [Example 388] , give the reported pIC50.
RESULT: > 8.30

QUERY: Give its pIC50 value. Item: Cc1nnn(C)c1-c1cnc2c3cc(F)c(C(C)(O)C4CC4)c(F)c3n([C@H](c3ccccc3)C3CCOCC3)c2c1 (single isomer, unassigned) [Example 450]
RESULT: > 8.30

// provenance: patent US10112941B2
